Reference source: ChEMBL document CHEMBL1201862

reported-endpoint: AC50

Task: Enter recorded AC50 with UniProt P11712 for CCOc1ccccc1C1C(C(N)=O)=C(C)Nc2nc(-c3ccc(OC)cc3)nn21 (stereo not given) here.
Sequence (P11712 whole entry): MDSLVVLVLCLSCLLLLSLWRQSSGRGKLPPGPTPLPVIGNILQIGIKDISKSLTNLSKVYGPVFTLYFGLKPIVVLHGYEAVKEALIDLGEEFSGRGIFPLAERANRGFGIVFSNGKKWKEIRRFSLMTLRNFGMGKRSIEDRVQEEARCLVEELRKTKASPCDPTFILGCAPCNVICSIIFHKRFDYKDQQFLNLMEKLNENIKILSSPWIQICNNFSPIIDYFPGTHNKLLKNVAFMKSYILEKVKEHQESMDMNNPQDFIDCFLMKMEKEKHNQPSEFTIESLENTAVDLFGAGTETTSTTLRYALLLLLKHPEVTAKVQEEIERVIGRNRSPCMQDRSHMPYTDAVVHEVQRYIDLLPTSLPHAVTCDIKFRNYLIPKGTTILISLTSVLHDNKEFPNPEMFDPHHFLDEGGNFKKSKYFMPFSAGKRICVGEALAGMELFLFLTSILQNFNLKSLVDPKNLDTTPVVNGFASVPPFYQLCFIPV
Output: 15.8 µM (inconclusive)

Task: Answer with AC50 of CCC(=O)O[C@H]1CC[C@H]2[C@@H]3CCC4=CC(=O)CC[C@]4(C)[C@H]3CC[C@]12C [TESTOSTERONE PROPIONATE] measured for UniProt P11712.
Output: 12.6 µM (inconclusive)

Task: Write AC50 of COc1ccc(OC)c(Nc2nc(-c3cccc([N+](=O)[O-])c3)nc3ccccc23)c1 ; system used: UniProt P11712
Output: 0.355 µM (inconclusive)

Task: Recall the reported AC50 of Cc1ccc(C)c(C(=O)C2=C(O)C(=O)N(CCN3CCOCC3)C2c2ccco2)c1 (stereo not given) when tested on UniProt P11712.
Output: 0.1 µM (inconclusive)

Task: Find AC50 for COC(=O)CSc1nnc(CNc2ccc(Cl)cc2)n1-c1ccccc1 on UniProt P11712 and write it down.
Output: 22.4 µM (inconclusive)

Task: Recall the reported AC50 of C=CCN1CCc2c(cc(O)c(O)c2Br)[C@H](c2ccccc2)C1 on UniProt P11712 and write it down.
Output: 31.6 µM (inconclusive)

Task: Supply AC50 measured with UniProt P11712 for O=C(ON=C1CCN(S(=O)(=O)c2ccccc2)CC1)c1ccccc1 .
Output: 31.6 µM (inconclusive)

Task: Report AC50 under test system UniProt P11712 for COc1ccc(-n2ncc3c(NCC4CCCO4)ncnc32)cc1 (stereo not given) .
Output: 12.6 µM (inconclusive)

Task: Output reported AC50 of the molecule O=C(c1ccncc1)N1CCC2(CC1)CCN(c1cccc(-c3ccccc3)c1)CC2 on UniProt P11712.
Output: 12.6 µM (inconclusive)

Task: Fetch value of AC50 on UniProt P11712 for CN(C)CCCN1c2ccc3ccccc3c2Sc2cccc(Cl)c21 .
Output: 7.94 µM (inconclusive)
